// provenance: patent US20250034266A1

# TARGET_ENTITY: human CCR8 (human, UniProt P51685 1-355)
# Sequence (P51685 whole entry): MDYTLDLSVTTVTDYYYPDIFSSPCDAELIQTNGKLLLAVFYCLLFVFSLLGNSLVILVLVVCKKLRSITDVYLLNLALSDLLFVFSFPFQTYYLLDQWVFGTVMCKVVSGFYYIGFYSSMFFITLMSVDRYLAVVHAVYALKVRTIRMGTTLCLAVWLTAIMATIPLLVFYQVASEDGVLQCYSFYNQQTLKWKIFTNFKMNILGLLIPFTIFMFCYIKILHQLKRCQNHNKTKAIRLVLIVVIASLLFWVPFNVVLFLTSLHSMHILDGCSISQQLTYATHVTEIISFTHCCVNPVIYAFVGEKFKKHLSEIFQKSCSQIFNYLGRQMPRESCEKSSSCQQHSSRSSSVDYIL
# ASSAY_REMARKS: cell-based or functional assay
QUANTITY_KIND: Max specific lysis (%), ADCC with human PBMC
Entry rule: numbers only, all in %.

BINDER: Hu348-4 (antibody, human IgG1, V domains shown, humanized, human IgG1; also called Hu348-4 HuIgG1) VH: EVQLVESGGGLVQPGGSLKLSCATSGFSFSNYRMHWLRQASGKGLEWVGVITVKSDNYGANYAASVKGRFTISRDDSKSSVYLQMNSLKTEDTAVYYCSSLGRVAYWGQGTLVTVSS VL: DIQMTQSPSSVSASVGDRVTITCKASQNVDTNVVWYQQKPGQSPKALIYSASSRYSGVPSRFSGSGSGTDFTLTISSLQPEDFATYYCQQHNSFPLTFGQGTKLEIK
RESULT_UNIT: %
READING: 13.5

Please turn your attention to the following entry.
-- ask # input binder: CM149 (antibody, V domains shown, CM149 is not defined in words; also called CM149 HuIgG1; parental antibody CM149) VH: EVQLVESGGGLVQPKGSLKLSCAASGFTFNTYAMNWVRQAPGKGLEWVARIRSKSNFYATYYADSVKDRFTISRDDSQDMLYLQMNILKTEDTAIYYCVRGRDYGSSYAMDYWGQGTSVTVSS VL: DIVMTQAAPSVPVTPGESVSISCRSSKSLLHSNANTYLYWFLQRPGQSPQLLIYRMSNLASGVPDRFSGSGSGTAFTLRISRVEAEDVGVYYCMQHLEYPLTFGAGTKLELK ; wanted: its Max specific lysis (%), ADCC with human PBMC
-- reply 10.3
